Target or system: soluble guanylate cyclase with a trivalent heme iron (Bos taurus, UniProt P16068)
Construct: suitably diluted sGC enzyme solution (isolated from bovine lung)
Sequence (P16068 whole entry): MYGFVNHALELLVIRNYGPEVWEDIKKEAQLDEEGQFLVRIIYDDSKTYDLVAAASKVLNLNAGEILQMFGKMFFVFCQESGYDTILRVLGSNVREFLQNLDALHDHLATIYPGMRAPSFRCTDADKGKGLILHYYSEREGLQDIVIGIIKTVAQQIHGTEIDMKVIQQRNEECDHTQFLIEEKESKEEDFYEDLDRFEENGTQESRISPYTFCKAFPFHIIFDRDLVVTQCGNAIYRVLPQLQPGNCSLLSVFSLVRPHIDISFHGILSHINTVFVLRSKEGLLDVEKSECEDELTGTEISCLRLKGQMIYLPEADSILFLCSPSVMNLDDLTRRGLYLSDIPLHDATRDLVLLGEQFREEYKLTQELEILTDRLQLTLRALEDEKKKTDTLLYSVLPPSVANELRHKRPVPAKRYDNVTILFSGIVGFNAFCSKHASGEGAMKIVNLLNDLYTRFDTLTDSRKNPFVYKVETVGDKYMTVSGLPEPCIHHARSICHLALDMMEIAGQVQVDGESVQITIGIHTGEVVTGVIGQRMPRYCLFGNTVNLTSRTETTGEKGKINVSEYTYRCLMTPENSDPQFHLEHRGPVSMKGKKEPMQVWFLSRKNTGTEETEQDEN
Sequence (P19687 whole entry partner): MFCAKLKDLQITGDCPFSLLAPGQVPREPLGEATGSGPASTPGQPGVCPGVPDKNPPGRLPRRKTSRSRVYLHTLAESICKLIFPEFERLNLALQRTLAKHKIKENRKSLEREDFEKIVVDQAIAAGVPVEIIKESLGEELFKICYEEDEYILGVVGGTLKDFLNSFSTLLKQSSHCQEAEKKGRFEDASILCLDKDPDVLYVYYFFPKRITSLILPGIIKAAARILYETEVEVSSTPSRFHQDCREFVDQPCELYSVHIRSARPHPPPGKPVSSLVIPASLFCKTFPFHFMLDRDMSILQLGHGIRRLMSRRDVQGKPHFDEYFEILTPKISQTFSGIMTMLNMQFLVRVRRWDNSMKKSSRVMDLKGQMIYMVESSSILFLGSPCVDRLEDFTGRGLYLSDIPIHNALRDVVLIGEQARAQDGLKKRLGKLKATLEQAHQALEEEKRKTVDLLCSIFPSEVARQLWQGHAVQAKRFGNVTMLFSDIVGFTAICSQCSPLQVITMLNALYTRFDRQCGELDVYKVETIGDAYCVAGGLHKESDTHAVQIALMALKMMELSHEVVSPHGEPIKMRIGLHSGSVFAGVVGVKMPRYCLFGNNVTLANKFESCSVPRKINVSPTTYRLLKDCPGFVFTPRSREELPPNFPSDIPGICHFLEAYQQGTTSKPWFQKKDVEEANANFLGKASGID
Test summary: Activation of soluble guanylate cyclase after oxidation of the heme iron (enzyme stored at 4° C. for about 7 days)
Condition notes: sGC with trivalent heme iron, prepared by storing freshly prepared enzyme at 4° C. for about 7 days
Reported endpoint: pEC50
Answers are plain numbers, as −log10 of the molar value.

Prompt: Please report the recorded pEC50 for COc1cc(NS(=O)(=O)c2ccc(Cl)cc2)c(C(=O)Nc2ccc(S(=O)(=O)N3CCSCC3)cc2)cc1OC .
Response: 6.30
